# system: Nav1.7 (or SCN9A) channel; HEK cells stably transfected with hSCN9A (Homo sapiens, UniProt Q15858)
# Construct: expressed in transfected cells
# Sequence (Q15858 whole entry): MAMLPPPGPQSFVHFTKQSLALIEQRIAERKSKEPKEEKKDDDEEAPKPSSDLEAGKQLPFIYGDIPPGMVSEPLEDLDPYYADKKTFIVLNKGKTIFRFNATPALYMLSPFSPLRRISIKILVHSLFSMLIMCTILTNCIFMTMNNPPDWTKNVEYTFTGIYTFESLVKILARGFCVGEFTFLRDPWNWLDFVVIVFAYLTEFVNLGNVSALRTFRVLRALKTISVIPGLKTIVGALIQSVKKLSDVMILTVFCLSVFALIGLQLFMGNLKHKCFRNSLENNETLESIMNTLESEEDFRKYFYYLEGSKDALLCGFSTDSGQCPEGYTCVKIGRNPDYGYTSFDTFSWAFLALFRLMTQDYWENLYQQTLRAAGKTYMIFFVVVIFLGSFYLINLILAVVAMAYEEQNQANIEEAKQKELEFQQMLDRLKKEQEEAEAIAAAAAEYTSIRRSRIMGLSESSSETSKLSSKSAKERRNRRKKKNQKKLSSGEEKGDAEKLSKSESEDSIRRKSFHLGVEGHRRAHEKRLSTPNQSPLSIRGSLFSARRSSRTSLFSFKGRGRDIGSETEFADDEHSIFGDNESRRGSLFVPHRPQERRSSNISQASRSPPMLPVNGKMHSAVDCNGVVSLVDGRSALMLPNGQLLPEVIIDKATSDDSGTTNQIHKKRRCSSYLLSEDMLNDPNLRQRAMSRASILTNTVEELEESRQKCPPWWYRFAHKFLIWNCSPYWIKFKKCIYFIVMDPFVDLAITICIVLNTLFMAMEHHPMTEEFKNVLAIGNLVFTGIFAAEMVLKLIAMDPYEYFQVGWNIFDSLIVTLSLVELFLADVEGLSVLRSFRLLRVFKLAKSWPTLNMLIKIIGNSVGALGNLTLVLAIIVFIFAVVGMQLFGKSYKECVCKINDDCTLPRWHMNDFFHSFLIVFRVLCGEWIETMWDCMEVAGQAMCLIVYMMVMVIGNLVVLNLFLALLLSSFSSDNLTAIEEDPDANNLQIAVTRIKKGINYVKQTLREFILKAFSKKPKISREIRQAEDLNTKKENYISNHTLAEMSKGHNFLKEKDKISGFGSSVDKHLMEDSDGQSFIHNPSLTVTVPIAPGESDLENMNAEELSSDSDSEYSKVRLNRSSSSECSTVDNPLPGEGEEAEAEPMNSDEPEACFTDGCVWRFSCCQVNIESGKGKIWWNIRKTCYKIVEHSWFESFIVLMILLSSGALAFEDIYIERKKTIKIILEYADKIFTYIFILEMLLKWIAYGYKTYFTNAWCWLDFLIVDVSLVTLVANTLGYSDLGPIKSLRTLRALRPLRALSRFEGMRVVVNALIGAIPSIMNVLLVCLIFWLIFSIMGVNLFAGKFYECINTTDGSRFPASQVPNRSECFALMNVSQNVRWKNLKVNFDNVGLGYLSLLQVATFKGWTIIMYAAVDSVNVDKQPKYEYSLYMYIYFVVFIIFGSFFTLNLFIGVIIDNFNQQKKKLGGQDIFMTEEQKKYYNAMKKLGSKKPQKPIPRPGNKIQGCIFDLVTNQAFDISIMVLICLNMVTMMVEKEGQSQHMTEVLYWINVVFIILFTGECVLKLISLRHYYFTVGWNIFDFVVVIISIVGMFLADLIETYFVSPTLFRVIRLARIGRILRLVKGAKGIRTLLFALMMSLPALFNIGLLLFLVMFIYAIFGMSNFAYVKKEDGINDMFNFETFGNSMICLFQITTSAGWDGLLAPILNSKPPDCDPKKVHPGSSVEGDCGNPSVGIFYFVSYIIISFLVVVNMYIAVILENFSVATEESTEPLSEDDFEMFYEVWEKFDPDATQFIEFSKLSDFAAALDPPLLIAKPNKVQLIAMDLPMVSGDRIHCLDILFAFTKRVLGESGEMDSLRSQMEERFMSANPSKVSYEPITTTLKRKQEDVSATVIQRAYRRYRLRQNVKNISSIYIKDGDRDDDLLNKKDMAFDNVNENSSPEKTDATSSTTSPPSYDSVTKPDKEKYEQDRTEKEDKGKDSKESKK
# test: Nav1.7 block, PatchXpress 7000 automated whole-cell voltage clamp, estimated IC50 (EIC50)
# Format: cell-based
# condition-context: estimated IC50; hSCN9A HEK cells, PatchXpress platform; Examples 283-814
Friendly reminder: IC50 below 0.09 µM is satisfied, at or above is not satisfied.

> print(dat)
                                        smi  assigned.category
1  N#Cc1cc(S(=O)(=O)Nc2ncns2)ccc1Oc1ccc(Cl)cc1-c1ccnc(Cl)c1          satisfied
2  O=S(=O)(Nc1cscn1)c1cc(Cl)c(Oc2ccc(C(F)(F)F)cc2-c2cncc(CO)c2)cc1F      not satisfied
3  N#Cc1cc(S(=O)(=O)Nc2nccs2)ccc1Oc1cccc(-c2cc(C(F)(F)F)nn2CCO)c1      not satisfied
4  N#Cc1cc(S(=O)(=O)Nc2cscn2)ccc1Oc1ccc(Cl)cc1-c1ccn(C2CCNCC2)n1      not satisfied
5  Cn1nc(C(F)(F)F)cc1-c1ccc(Oc2ccc(S(=O)(=O)Nc3nccs3)cc2C#N)c(F)c1      not satisfied

Q. Just wondering, is IC50 of CCn1nc(C(F)(F)F)cc1-c1ccc(Oc2ccc(S(=O)(=O)Nc3ncc(F)s3)cc2C#N)c(F)c1 below 0.09 µM?
A. satisfied

Q. Just wondering, is IC50 of O=S(=O)(Nc1nncs1)c1cc(Cl)c(Oc2ccc(Cl)cc2-c2cn[nH]c2)cc1F below 0.09 µM?
A. satisfied

Q. Just wondering, is IC50 of N#Cc1cc(S(=O)(=O)Nc2nccs2)ccc1Oc1ccc(-c2cn(CC(F)(F)F)nc2N)cc1 below 0.09 µM?
A. not satisfied

Q. Just wondering, is IC50 of O=S(=O)(Nc1ncns1)c1cc(Cl)c(Oc2ccc(Cl)cc2C2CCNCC2)cc1F below 0.09 µM?
A. satisfied

Q. Just wondering, is IC50 of CCn1nc(C(F)(F)F)cc1-c1ccc(Oc2ccc(S(=O)(=O)Nc3ncc(F)s3)cc2C#N)cc1F below 0.09 µM?
A. not satisfied

Q. Just wondering, is IC50 of N#Cc1cncc(-c2cc(C(F)(F)F)ccc2Oc2cc(F)c(S(=O)(=O)Nc3ncns3)cc2Cl)c1 below 0.09 µM?
A. not satisfied

Q. Just wondering, is IC50 of Nc1nccc(-c2cc(F)ccc2Oc2cc(F)c(S(=O)(=O)Nc3ncc(Cl)s3)cc2F)n1 below 0.09 µM?
A. not satisfied

Q. Just wondering, is IC50 of N#Cc1cc(S(=O)(=O)Nc2cscn2)ccc1Oc1ccc(OC(F)(F)F)cc1-c1cn[nH]c1 below 0.09 µM?
A. not satisfied

Q. Just wondering, is IC50 of Cn1nccc1-c1cc(Cl)ccc1Oc1cc(F)c(S(=O)(=O)Nc2nccs2)cc1Cl below 0.09 µM?
A. satisfied

Q. Just wondering, is IC50 of Cn1nccc1-c1cc(C#N)ccc1Oc1cc(F)c(S(=O)(=O)Nc2ncc(Cl)s2)cc1F below 0.09 µM?
A. not satisfied

* * *

Measured log10 IC50, listed per entry.
# system: Nav1.7 (or SCN9A) channel; HEK cells stably transfected with hSCN9A (Homo sapiens, UniProt Q15858)
# Construct: expressed in transfected cells
# test: Nav1.7 block, PatchXpress 7000 automated whole-cell voltage clamp, estimated IC50 (EIC50)
# Type: cell-based
# condition-context: PatchXpress platform; hSCN9A HEK cells held at V1/2 of inactivation; estimated IC50
Note the log scale: values are log10 of IC50 expressed in nM.

> print(dat)
                                   compound  measured.attribute  endpoint.value
1  Cn1nccc1-c1cc(CO)ccc1Oc1ccc(S(=O)(=O)Nc2ncns2)cc1C#N          log10 IC50            3.05
2  CC(C)Oc1ccc(-c2ccccc2Oc2ccc(S(=O)(=O)Nc3ncns3)cc2C#N)cc1          log10 IC50            2.41
3  COc1ccc(-c2cccc(C)c2Oc2ccc(S(=O)(=O)Nc3ncns3)cc2C#N)cc1F          log10 IC50            4.04
4  COc1ccc(-c2cccc(C)c2Oc2ccc(S(=O)(=O)Nc3ncns3)cc2C#N)cc1          log10 IC50            3.24
5  Cc1cccc(-c2ccc(F)cc2)c1Oc1ccc(S(=O)(=O)Nc2ncns2)cc1C#N          log10 IC50            3.31
6  O=S(=O)(Nc1ncns1)c1cc(F)c(Oc2ccn(Cc3ccc(Cl)cc3)n2)c(F)c1          log10 IC50            4.59
7  O=S(=O)(Nc1ncns1)c1ccc(Oc2ccc(CC3CC3)cc2)c(Cl)c1          log10 IC50            3.40
8  Cn1nccc1-c1cc(Cl)ccc1Oc1ccc(S(=O)(=O)Nc2ncc(F)s2)cc1F          log10 IC50            1.85

Q. State the recorded log10 IC50 for this entry: COc1ccccc1-c1ccccc1Oc1ccc(S(=O)(=O)Nc2nccs2)c(F)c1 [Example 207]
A. 3.01

Q. State the recorded log10 IC50 for this entry: Cn1cc(-c2ccccc2)c(Oc2ccc(S(=O)(=O)Nc3nccs3)cc2F)n1
A. 3.54

Q. State the recorded log10 IC50 for this entry: N#Cc1cc(S(=O)(=O)Nc2nccs2)ccc1Oc1cc(C2CC2)nn1C1CCCCC1
A. 3.31

Q. State the recorded log10 IC50 for this entry: N#Cc1cc(S(=O)(=O)Nc2nccs2)ccc1Oc1cc(C(F)(F)F)nn1-c1ccccc1
A. 1.85

Q. State the recorded log10 IC50 for this entry: CC(C)Oc1cccc(-c2ccccc2Oc2ccc(S(=O)(=O)Nc3ncns3)cc2C#N)c1
A. 1.95

Q. State the recorded log10 IC50 for this entry: Cc1cc(Oc2ccc(S(=O)(=O)Nc3nccs3)cc2)n(-c2ccccc2)n1
A. 3.05

Q. State the recorded log10 IC50 for this entry: O=S(=O)(Nc1nccs1)c1ccc(Oc2cccc(-c3ccccc3)c2)cc1F
A. 3.14
